Target: human CD3 on cells (human PBMC; Jurkat TCR/CD3 NFAT reporter cells) (human, UniProt P07766 23-207; P04234 22-171; P09693 23-182)
Sequence (P07766 23-207, chain 1 of 3): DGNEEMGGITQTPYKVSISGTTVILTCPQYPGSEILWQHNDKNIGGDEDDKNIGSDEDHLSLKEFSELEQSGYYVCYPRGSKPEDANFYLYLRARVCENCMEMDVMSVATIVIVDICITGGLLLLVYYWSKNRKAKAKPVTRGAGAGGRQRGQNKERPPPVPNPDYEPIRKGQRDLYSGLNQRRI
Sequence (P04234 22-171, chain 2 of 3): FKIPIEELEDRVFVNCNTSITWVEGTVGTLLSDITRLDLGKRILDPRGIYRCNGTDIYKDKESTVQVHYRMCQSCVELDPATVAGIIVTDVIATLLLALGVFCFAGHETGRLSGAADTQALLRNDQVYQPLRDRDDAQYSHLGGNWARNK
Sequence (P09693 23-182, chain 3 of 3): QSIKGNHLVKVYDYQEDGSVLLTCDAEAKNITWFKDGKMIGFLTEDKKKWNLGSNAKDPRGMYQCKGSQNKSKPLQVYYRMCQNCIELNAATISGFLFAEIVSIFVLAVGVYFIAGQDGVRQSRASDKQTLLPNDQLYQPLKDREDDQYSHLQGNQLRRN
Experiment: cell-based or functional assay
binders and their reported % of SP34
Just the number in %, nothing appended.

Hu153A6B1-3 (antibody, V domains shown, humanized mAb) VH: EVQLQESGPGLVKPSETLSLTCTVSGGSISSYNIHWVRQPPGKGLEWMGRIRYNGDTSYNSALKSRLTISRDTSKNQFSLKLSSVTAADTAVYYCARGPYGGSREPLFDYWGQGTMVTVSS VL: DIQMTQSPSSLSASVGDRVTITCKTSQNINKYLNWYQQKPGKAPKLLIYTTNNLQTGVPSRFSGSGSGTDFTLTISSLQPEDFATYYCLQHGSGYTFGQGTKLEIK    45.5
Hu155A9B1-15 (antibody, V domains shown, humanized mAb) VH: EVQLQESGPGLVKPSETLSLTCTVSGGSISSYNVHWVRQPPGKGLEWMGRVRYNGDTSYNSALKSRLTISRDTSKNQFSLKLSSVTAADTAVYYCARGPYGGSSEPLFDYWGQGTMVTVSS VL: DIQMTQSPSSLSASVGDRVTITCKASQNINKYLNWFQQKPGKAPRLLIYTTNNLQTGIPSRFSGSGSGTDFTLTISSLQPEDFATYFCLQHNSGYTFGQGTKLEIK    20.1

Please fill in: % of SP34 reported for Hu155A9B1-14 (antibody, V domains shown, humanized mAb) VH: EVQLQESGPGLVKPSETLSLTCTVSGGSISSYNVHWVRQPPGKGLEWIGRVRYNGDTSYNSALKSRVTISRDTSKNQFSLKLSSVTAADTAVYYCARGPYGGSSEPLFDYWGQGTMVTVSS VL: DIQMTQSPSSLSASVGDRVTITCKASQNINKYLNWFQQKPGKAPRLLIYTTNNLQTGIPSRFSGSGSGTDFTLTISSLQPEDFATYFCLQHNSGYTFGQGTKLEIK = 19.1
